test system: MAP3K3; conditions: concentration: 1 μM,replicates: in singlicate; n = 1;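 further: KINOMEscan kinase panel screen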
readout: %Inh (%)
One number for each entry, in %.

Below: 5 compounds and their reported %Inh.
smiles_record=O=C(Nc1n[nH]c2cc(-c3ccco3)ccc12)C1CC1 assay_target=MAP3K3 readout=%Inh units_symbol=% value_measured=24
smiles_record=C[C@@H]1CCN(C(=O)N2CCCC2)C[C@@H]1N(C)c1ncnc2[nH]ccc12 assay_target=MAP3K3 readout=%Inh units_symbol=% value_measured=16
smiles_record=Cl.c1ccc(Oc2ccc(Nc3ccnc4cc(-c5ccc(CN6CCNCC6)o5)ccc34)cc2)nc1 assay_target=MAP3K3 readout=%Inh units_symbol=% value_measured=0
smiles_record=O=C(NOCC1CC1)c1cc(Br)c(F)c(F)c1Nc1ccc(I)cc1Cl assay_target=MAP3K3 readout=%Inh units_symbol=% value_measured=0
smiles_record=CCn1c(-c2nonc2N)nc2cncc(CNC3CCNCC3)c21.Cl assay_target=MAP3K3 readout=%Inh units_symbol=% value_measured=0

Proceeding to the next compound to report its %Inh.
Sure, the documented %Inh for `CCOC(=O)N1CCC(n2cnc(-c3ccc(F)cc3)c2-c2ccnc(N)n2)CC1` is 11
